Listing of recorded MIC by entry.
tested on: Enterococcus faecalis; experiment: Minimum inhibitory activity against tetracycline-susceptible Enterococcus faecalis strain ATCC 9790; format: functional
Response body: numeric value in µg/mL, unit text excluded.

Which MIC value belongs to CN(C)[C@@H]1C(=O)C(C(N)=O)=C(O)[C@@]2(O)C(O)=C3C(=O)c4c(O)cccc4[C@H](CSCCCCl)C3[C@H](O)C12 (some centres undefined) ?
0.6

Okay, and C[C@H]1c2cccc(O)c2C(=O)C2=C(O)[C@]3(O)C(=O)C(C(N)=O)=C(O)[C@@H](N(C)C)[C@@H]3[C@@H](O)[C@@H]21.O ?
0.25

Okay, and CCCSC[C@H]1c2cccc(O)c2C(=O)C2=C(O)[C@]3(O)C(O)=C(C(N)=O)C(=O)[C@@H](N(C)C)C3[C@@H](O)C21 (some centres undefined) ?
1.25

Okay, and CN(C)[C@@H]1C(=O)C(C(N)=O)=C(O)[C@@]2(O)C(O)=C3C(=O)c4c(O)cccc4[C@H](CSCCC(=O)O)C3CC12 (some centres undefined) ?
10

* * *

system: Escherichia coli; test: Growth inhibitory activity against tetracycline-resistant ML308-225 bacterial strain of Escherichia coli; assay type: functional, organism-based
recorded_endpoint: IC50 (µM)
Response body: numeric value in µM, unit text excluded.

Which IC50 value belongs to C[C@H]1c2cccc(O)c2C(=O)C2=C(O)[C@]3(O)C(=O)C(C(N)=O)=C(O)[C@@H](N(C)C)[C@@H]3[C@@H](O)[C@@H]21.O ?
9.2

* * *

tested on: Escherichia coli; assay: Inhibitory activity against tetracycline uptake in everted membrane vesicles derived from Tc-resistant Escherichia coli bearing class B tetracycline resistance efflux protein (Tet); assay type: functional
pIC50: −log10 of the molar value.
recorded_endpoint: pIC50

C[C@H]1c2cccc(O)c2C(=O)C2=C(O)[C@]3(O)C(=O)C(C(N)=O)=C(O)[C@@H](N(C)C)[C@@H]3[C@@H](O)[C@@H]21.O = < 4.12
CN(C)[C@@H]1C(=O)C(C(N)=O)=C(O)[C@@]2(O)C(=O)C3(F)C(=O)c4c(O)cccc4CC3CC12 (stereo partly drawn) = < 4.12
COc1ccc(Cl)c2c1C(=O)CC(CC(=O)O)S2 (stereo not drawn) = < 3.82
COC(=O)c1c(O)cccc1CC1CC(=O)[C@@]2(O)C(O)=C(C(N)=O)C(=O)[C@@H](N(C)C)C2C1 (stereo partly drawn) = < 4.12
CC(=O)Oc1cccc2c1C(=O)C1=C(O)[C@]3(OC(C)=O)C(O)=C(C(N)=O)C(=O)[C@@H](N(C)C)C3CC1[C@]2(C)O (stereo partly drawn) = < 4.12

Which pIC50 value belongs to COc1cc(O)c2c(c1)C(=O)c1cc3c(c(O)c1C2=O)C(OC1OC(C)C(O)C(O)C1OC)C(OC)C(C)(O)C3=O (stereo not drawn) ?
< 4.12

Okay, and COc1cccc2c1C(=O)c1c(O)c3c(c(O)c1C2=O)C[C@@](O)(C(=O)CO)C[C@@H]3O[C@H]1C[C@H](N)[C@H](O)[C@H](C)O1 ?
< 4.12

Okay, and CC(=O)OC1=CC[C@H]2CC3C(=C(O)c4c(O)cccc4C3O[Si](C)(C)C(C)(C)C)C(=O)[C@H]2C1 (stereo partly drawn) ?
< 3.82
